# System: Musca domestica
# Assay comment: Housefly contact test, mortality after 48 hours
# Assay type: in vivo, Housefly Musca domestica
# Protocol conditions: μg of the test compound per 25 female flies
LC50 HF values, listed per item

| Chemical smiles | Target desc | Value comparator | LC50 HF, µg |
| --- | --- | --- | --- |
| CC(C)C(=Nc1cc(C(F)(F)F)ccn1)OCc1cccc(Oc2ccccc2)c1 | Musca domestica | > | 100 |
| CC(C)C(=Nc1ccc(OCC(F)(F)F)nc1)OCc1cccc(Oc2ccc(Cl)cc2)n1 | Musca domestica | < | 100 |
| CC(C)C(=Nc1ccc(OCC(F)(F)F)nc1)OCc1cccc(Oc2ccccc2)c1 | Musca domestica | < | 100 |
| Cc1nc2cc(N=C(OCc3cccc(Oc4ccccc4)c3)C(C)C)ccc2o1 | Musca domestica | > | 100 |
| CC(C)C(=Nc1ccc2ncccc2c1)OCc1cccc(Oc2ccccc2)c1 | Musca domestica | = | 59 |
| CC(C)C(=Nc1ccc2ocnc2c1)OCc1cccc(Oc2ccccc2)c1 | Musca domestica | = | 10 |
| COc1ccc(N=C(OCc2cccc(Oc3ccccc3)c2)C2CC2)cn1 | Musca domestica | = | 58 |
| C=C(C)C(=Nc1ccc(Cl)nc1)OCc1ccc(F)c(Oc2ccc(Cl)cc2)c1 | Musca domestica | < | 100 |
| CC(C)C(=Nc1ccc(OCC(F)(F)F)nc1)OCc1ccc(F)c(Oc2ccccc2)c1 | Musca domestica | < | 100 |
| CC(C)C(=Nc1ccc(Cl)nc1)OCc1cccc(Oc2ccccc2)c1 | Musca domestica | = | 5.5 |
| CC(C)C(=Nc1ccc(Cl)nc1)OCc1cccc(Oc2ccc(F)cc2)c1 | Musca domestica | = | 9 |
| CC(C)C(=Nc1ccc(C(F)(F)F)cn1)OCc1cccc(Oc2ccccc2)c1 | Musca domestica | = | 42 |
| CSc1ccc(N=C(OCc2cccc(Oc3ccccc3)c2)C(C)C)cn1 | Musca domestica | < | 100 |
| CC(C)C(=Nc1c(F)c(F)nc(F)c1F)OCc1cccc(Oc2ccccc2)c1 | Musca domestica | > | 100 |
| CC(C)C(=Nc1cncc(C(F)(F)F)c1)OCc1ccc(F)c(Oc2ccc(Cl)cc2)c1 | Musca domestica | = | 40 |
